protein stability index: recorded values
- testMethodNotes: protein stability index of a GFP-peptide fusion (yeast GPS) (PSI 1-4); higher = more stable; sorted into four equal gates, so the index is relative within each strain
- setupConditions: doa10∆
endpoint: protein stability index

- seqString: "KTADVKRQYVKQFLTKD [RPL20A]"
  endpoint: "protein stability index"
  reportedResult: 2.94
- seqString: "NSTATMQHNPLAGKRGP [PGD1]"
  endpoint: "protein stability index"
  reportedResult: 3.05
- seqString: "AARHKQHEQGTFEKHDR [RRI2]"
  endpoint: "protein stability index"
  reportedResult: 3.02
- seqString: "SERDSKDRYINGDKKVD [YMR129W/POM152]"
  endpoint: "protein stability index"
  reportedResult: 3.08
